The measurements presented in this section are drawn from patent US11939314B2.

# experimental-system: c-Kit(V654A) (Homo sapiens, UniProt P10721, V654A)
# Construct: amino acids 544-end containing the V654A mutation; GST (N)
# Sequence (P10721 544-976 V654A): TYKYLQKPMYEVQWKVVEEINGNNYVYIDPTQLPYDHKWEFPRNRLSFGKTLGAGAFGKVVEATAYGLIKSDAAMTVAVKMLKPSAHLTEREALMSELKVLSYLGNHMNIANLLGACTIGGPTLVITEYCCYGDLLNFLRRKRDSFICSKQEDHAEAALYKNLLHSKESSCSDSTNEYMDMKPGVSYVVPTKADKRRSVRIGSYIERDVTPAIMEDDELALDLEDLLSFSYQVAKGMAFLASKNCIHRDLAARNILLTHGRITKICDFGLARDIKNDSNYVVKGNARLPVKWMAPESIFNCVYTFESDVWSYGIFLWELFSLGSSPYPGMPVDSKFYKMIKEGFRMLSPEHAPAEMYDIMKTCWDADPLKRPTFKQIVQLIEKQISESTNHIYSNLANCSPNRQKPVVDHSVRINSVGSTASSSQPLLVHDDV
# assay-comment: c-Kit(V654A) assay
# conditions-used: recombinant human c-Kit aa 544-end, 200 μM ATP, 1.4E-06 means 1.4×10^−6, read-out: Inhibition (IC50) of c-KIT (V654A)
experimental-readout: IC50 (nM)
Give the value, in units of nM, as a plain number.

# annotated cases, reported IC50 shown
compound="O=C(c1ccc(-n2cc(-c3cc4cc(F)c(F)cc4[nH]c3=O)nn2)cc1)N1CCC(OCCN2CCCC2)C1 (centres unmarked)" experimental_readout=IC50 meas_value=190
compound=CN1CC[C@@H](Oc2ccc(-n3cc(-c4cc5cc(Cl)ccc5[nH]c4=O)nn3)cc2)C1 experimental_readout=IC50 meas_value=13

Q: Data request, read-out IC50, for `O=C(c1ccc(-n2cc(-c3cc4cc(F)c(F)cc4[nH]c3=O)nn2)cc1)N1C[C@H]2CNC[C@H]2C1`
A: 17

Q: What do you get for `CO[C@@H]1CCN(S(=O)(=O)c2ccc(-n3cc(-c4cc5cc(Cl)ccc5[nH]c4=O)nn3)cc2)C1` ?
A: 13

Q: What do you get for `O=C(Cn1ccc2cc(-n3cc(-c4cc5cc(F)c(F)cc5[nH]c4=O)nn3)ccc21)N1CCNCC1` ?
A: 12

Q: What do you get for `CNc1ccc(-n2cc(-c3cc4cc(F)ccc4[nH]c3=O)nn2)cc1` ?
A: 25

Q: What do you get for `O=C(c1ccc(-n2cc(-c3cc4cccnc4[nH]c3=O)nn2)cc1)N1CCOCC1` ?
A: 24

Q: What do you get for `CN1C[C@H]2CCN(C(=O)c3ccc(-n4cc(-c5cc6cc(F)ccc6[nH]c5=O)nn4)cc3)[C@H]2C1` ?
A: 7.5

---

# experimental-system: PDGFRalpha(V561D) (Homo sapiens, UniProt P16234, V561D)
# Construct: recombinant human PDGFRalpha, amino acids 550end containing the V561 D mutation; 6His (N)
# Sequence (P16234 550-1089 V561D): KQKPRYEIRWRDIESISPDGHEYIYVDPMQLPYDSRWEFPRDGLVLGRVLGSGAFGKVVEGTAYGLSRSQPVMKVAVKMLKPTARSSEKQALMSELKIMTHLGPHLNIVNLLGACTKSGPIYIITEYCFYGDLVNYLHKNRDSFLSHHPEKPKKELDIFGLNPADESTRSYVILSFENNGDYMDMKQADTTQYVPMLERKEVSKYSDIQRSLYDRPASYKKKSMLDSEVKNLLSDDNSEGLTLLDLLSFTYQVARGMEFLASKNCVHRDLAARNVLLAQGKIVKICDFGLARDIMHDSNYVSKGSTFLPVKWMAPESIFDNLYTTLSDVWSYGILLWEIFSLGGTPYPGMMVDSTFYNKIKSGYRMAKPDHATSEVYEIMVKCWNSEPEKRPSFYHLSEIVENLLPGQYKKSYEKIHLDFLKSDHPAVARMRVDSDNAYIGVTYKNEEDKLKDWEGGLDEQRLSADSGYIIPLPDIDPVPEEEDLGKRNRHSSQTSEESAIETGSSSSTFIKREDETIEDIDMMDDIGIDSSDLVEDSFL
# assay-comment: PDGFRalpha(V561D) assay
# conditions-used: recombinant human PDGFRalpha aa 550-end, 200 μM ATP, 1.4E-06 means 1.4×10^−6, read-out: Inhibition (IC50) of PDGFRα (V561D)
experimental-readout: IC50 (nM)
Give the value, in units of nM, as a plain number.

# annotated cases, reported IC50 shown
compound="COCC1CCN(C(=O)c2ccc(-n3cc(-c4cc5cc(F)ccc5[nH]c4=O)nn3)cc2)C1 (stereo not drawn)" experimental_system="PDGFRalpha(V561D) (Homo sapiens, UniProt P16234, V561D)" experimental_readout=IC50 output_unit=nM meas_value=0.9
compound=CN(C)[C@@H]1CCCN(C(=O)c2ccc(-n3cc(-c4cc5ccc(F)cc5[nH]c4=O)nn3)cc2)C1 experimental_system="PDGFRalpha(V561D) (Homo sapiens, UniProt P16234, V561D)" experimental_readout=IC50 output_unit=nM meas_value=120
compound=CN(C(=O)[C@H]1CCCO1)c1ccc(-n2cc(-c3cc4cc(F)ccc4[nH]c3=O)nn2)cc1 experimental_system="PDGFRalpha(V561D) (Homo sapiens, UniProt P16234, V561D)" experimental_readout=IC50 output_unit=nM meas_value=85
compound=CN1CCC(CNC(=O)c2ccc(-n3cc(-c4cc5cc(F)ccc5[nH]c4=O)nn3)cc2)CC1 experimental_system="PDGFRalpha(V561D) (Homo sapiens, UniProt P16234, V561D)" experimental_readout=IC50 output_unit=nM meas_value=6
compound=Cc1ccc2[nH]c(=O)c(-c3cn(-c4ccc(C(=O)N5CCN(C)CC5)cc4)nn3)cc2c1 experimental_system="PDGFRalpha(V561D) (Homo sapiens, UniProt P16234, V561D)" experimental_readout=IC50 output_unit=nM meas_value=100
compound=O=C(c1ccc(-n2cc(-c3cc4cc(F)ccc4[nH]c3=O)nn2)cc1)N1CCN(C2COC2)CC1 experimental_system="PDGFRalpha(V561D) (Homo sapiens, UniProt P16234, V561D)" experimental_readout=IC50 output_unit=nM meas_value=95
compound=CN1CC[C@@H](Oc2ccc(-n3cc(-c4cc5cc(F)ccc5[nH]c4=O)nn3)cc2)C1 experimental_system="PDGFRalpha(V561D) (Homo sapiens, UniProt P16234, V561D)" experimental_readout=IC50 output_unit=nM meas_value=70
compound="O=C(c1cccc(-n2cc(-c3cc4cc(F)c(F)cc4[nH]c3=O)nn2)c1)N1CCC(N2CCCC2)C1 (stereo not drawn)" experimental_system="PDGFRalpha(V561D) (Homo sapiens, UniProt P16234, V561D)" experimental_readout=IC50 output_unit=nM meas_value=81

Proceeding to the next compound to report its IC50.
Q: Data request, read-out IC50, for `CCN(CC)[C@H]1CCCN(C(=O)c2ccc(-n3cc(-c4cc5cc(F)ccc5[nH]c4=O)nn3)cc2)C1`
A: 230
